# target-or-system: ALK [WT] (Homo sapiens)
# Sequence (Q9UM73 19-1620): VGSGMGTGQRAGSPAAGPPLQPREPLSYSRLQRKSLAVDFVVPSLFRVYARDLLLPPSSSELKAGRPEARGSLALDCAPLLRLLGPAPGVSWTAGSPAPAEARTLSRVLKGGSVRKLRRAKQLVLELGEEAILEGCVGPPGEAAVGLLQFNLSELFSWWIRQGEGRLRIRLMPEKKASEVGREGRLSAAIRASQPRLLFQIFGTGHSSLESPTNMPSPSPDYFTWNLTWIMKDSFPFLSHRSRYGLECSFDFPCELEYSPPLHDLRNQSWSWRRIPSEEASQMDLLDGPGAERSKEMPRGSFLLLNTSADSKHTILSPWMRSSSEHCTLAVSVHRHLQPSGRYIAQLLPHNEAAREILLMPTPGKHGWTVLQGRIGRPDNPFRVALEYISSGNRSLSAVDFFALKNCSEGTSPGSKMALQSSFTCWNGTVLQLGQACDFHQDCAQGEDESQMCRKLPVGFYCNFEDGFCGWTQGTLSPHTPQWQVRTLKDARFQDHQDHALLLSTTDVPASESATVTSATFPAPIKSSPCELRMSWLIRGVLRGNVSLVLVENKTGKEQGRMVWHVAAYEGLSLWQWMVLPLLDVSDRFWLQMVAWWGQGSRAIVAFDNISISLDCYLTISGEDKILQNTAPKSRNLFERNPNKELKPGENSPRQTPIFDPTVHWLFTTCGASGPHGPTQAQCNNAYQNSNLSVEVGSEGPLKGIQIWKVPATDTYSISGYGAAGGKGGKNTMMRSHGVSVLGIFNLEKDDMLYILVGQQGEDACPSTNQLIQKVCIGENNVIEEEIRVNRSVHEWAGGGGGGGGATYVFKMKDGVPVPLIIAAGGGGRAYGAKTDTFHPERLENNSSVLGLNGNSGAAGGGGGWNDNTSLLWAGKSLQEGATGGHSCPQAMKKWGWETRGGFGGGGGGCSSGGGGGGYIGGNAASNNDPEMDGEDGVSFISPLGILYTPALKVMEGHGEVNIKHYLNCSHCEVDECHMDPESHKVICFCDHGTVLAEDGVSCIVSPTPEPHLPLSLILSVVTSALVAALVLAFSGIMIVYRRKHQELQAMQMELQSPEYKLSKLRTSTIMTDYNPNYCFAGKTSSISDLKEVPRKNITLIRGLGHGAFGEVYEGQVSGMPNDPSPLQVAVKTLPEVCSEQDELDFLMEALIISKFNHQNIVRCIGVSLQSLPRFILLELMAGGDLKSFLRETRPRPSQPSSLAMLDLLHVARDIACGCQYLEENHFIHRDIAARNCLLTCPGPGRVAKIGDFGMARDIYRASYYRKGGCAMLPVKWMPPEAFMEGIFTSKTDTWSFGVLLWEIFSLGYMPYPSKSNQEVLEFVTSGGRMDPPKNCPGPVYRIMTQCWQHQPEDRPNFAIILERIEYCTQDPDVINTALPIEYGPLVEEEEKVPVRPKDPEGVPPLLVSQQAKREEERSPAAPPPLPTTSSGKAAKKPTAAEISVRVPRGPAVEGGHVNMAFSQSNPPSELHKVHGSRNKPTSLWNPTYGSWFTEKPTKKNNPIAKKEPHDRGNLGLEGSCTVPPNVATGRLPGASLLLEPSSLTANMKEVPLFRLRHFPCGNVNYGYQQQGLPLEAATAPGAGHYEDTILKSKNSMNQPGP
# experiment-notes: Kinase inhibition assay, ALK [WT]
# Format: biochemical
The following compounds are shown together with reported IC50 values.

1. COc1cc(CCN(C)C)ccc1Nc1ncc(Cl)c(Nc2ccccc2P(C)(C)=O)n1 | ≤ 2 nM

stdin: Give IC50 for the following compound: COc1cc(C(C)(C)N(C)C)ccc1Nc1ncc(Cl)c(Nc2ccccc2P(C)(C)=O)n1
stdout: ≤ 2 nM

stdin: Specify IC50 for CNCC(C)(C)c1ccc(Nc2ncc(Cl)c(Nc3ccccc3P(C)(C)=O)n2)c(OC)c1 and stop.
stdout: 2 to 5 nM

stdin: Please report the measured IC50 for COc1cc(CCN(C)C)c(C)cc1Nc1ncc(Cl)c(Nc2ccccc2P(C)(C)=O)n1
stdout: 2 to 5 nM

stdin: Return reported IC50. Input compound: COc1cc(CCN2CCOCC2)ccc1Nc1ncc(Cl)c(Nc2ccccc2P(C)(C)=O)n1
stdout: 2 to 5 nM

stdin: Please list IC50 recorded for the compound COc1cc(CCN2CCN(C)CC2)ccc1Nc1ncc(Cl)c(Nc2ccccc2P(C)(C)=O)n1
stdout: ≤ 2 nM

###

# target-or-system: BaF3 [EML4-ALK] (Homo sapiens)
# Construct: IC50(nM) ALK (Ba/F3); other: 72 hours, CellTiter-Glo; BaF3 [EML4-ALK]; fused on or other part: Q9HC35 (Echinoderm microtubule-associated protein-like 4)
# experiment-notes: Cytotoxicity test (CellTiter-Glo), BaF3 [EML4-ALK]
# Type: cell-based
# study-conditions: 72 hours, CellTiter-Glo; read-out: IC50(nM) ALK (Ba/F3)
# Protocol: The in vitro anti-proliferative activity of the compounds of the present disclosure against three types of cells that are cultured in vitro was tested by CellTiter-Glo method. Cell lines: BaF3 parental; BaF3 [EML4-ALK] (From WuXi PharmaTech) and BaF3 [EMF4-AFK F1196M] […] 4. After continuously cultured for 72 hours, the cells were detected by CellTiter-Glo for the cell viability. The dose-effect curve was made using GraphPad Prism software and IC50 was calculated.
quantity: GI50

stdin: Give GI50 for CNC(C)c1ccc(Nc2ncc(Cl)c(Nc3ccccc3P(C)(C)=O)n2)c(OC)c1 (stereo not shown)
stdout: 50 to 100 nM

###

# target-or-system: BaF3 [EML4-ALK] (Homo sapiens, UniProt Q9UM73)
# Construct: IC50(nM) ALK (Ba/F3); other: 72 hours, CellTiter-Glo; BaF3 [EML4-ALK]; fused on or other part: Q9HC35 (Echinoderm microtubule-associated protein-like 4)
# Sequence (Q9UM73 whole entry, change not shown, the tested form may be a part): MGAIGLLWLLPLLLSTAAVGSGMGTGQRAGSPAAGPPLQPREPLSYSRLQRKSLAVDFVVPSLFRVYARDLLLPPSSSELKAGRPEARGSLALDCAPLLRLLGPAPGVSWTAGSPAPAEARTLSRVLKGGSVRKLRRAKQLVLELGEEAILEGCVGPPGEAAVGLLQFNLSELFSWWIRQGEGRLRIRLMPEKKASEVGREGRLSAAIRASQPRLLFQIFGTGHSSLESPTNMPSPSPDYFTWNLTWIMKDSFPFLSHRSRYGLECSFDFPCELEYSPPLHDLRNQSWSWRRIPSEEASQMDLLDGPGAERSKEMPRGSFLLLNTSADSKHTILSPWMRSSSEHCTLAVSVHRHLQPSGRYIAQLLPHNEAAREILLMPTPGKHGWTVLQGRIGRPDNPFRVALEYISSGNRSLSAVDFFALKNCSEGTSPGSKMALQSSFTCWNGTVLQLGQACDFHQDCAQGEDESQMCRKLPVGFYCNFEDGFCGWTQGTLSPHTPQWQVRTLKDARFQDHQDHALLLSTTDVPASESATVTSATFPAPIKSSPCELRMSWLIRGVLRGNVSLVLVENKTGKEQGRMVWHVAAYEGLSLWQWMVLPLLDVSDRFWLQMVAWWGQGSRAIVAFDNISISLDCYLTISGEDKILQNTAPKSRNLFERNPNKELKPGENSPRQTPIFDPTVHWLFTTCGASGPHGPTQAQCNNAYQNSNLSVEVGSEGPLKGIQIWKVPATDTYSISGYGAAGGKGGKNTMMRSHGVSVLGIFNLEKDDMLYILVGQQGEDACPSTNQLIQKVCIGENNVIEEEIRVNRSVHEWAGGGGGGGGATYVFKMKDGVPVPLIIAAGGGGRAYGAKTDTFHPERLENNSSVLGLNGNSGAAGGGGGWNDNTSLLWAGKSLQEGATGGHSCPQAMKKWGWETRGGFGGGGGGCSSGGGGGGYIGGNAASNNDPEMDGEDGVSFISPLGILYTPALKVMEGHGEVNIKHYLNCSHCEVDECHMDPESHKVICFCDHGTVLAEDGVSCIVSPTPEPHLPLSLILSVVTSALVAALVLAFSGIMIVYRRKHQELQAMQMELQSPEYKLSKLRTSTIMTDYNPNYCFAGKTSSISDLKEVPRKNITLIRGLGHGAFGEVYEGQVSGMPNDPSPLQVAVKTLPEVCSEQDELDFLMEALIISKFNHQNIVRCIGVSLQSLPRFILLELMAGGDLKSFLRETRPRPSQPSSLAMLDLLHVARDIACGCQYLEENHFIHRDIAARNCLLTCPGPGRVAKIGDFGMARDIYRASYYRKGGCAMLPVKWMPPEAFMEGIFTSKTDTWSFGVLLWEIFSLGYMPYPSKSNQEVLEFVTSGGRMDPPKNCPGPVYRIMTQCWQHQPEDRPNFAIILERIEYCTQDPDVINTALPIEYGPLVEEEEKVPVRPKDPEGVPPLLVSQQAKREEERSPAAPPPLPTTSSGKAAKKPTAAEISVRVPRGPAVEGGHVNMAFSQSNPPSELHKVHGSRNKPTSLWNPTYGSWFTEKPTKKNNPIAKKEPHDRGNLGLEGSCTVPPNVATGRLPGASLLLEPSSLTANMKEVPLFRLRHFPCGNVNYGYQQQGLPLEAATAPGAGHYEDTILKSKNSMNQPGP
# experiment-notes: Cytotoxicity test (CellTiter-Glo), BaF3 [EML4-ALK]
# Type: cell-based
# study-conditions: 72 hours, CellTiter-Glo; read-out: IC50(nM) ALK (Ba/F3)
quantity: GI50

Example results:
1. COc1cc(C(C)(C)N)ccc1Nc1ncc(Cl)c(Nc2ccccc2P(C)(C)=O)n1 | 25 to 50 nM
2. COc1cc(CCN2CCN(C)CC2)ccc1Nc1ncc(Cl)c(Nc2ccccc2P(C)(C)=O)n1 | < 25 nM
3. COc1cc(CCN2CCCCC2)ccc1Nc1ncc(Cl)c(Nc2ccccc2P(C)(C)=O)n1 | < 25 nM
4. CNCC(C)(C)c1ccc(Nc2ncc(Cl)c(Nc3ccccc3P(C)(C)=O)n2)c(OC)c1 | 25 to 50 nM
5. COc1cc(C(C)(C)CN(C)C)ccc1Nc1ncc(Cl)c(Nc2ccccc2P(C)(C)=O)n1 | 25 to 50 nM
6. COc1cc(CCN(C)C)c(C)cc1Nc1ncc(Cl)c(Nc2ccccc2P(C)(C)=O)n1 | 25 to 50 nM

stdin: Look up GI50 of COc1cc(CCN2CCOCC2)ccc1Nc1ncc(Cl)c(Nc2ccccc2P(C)(C)=O)n1 and report it.
stdout: < 25 nM

stdin: Item CNCCc1cc(OC)c(Nc2ncc(Cl)c(Nc3ccccc3P(C)(C)=O)n2)cc1C : provide GI50
stdout: 100 to 200 nM
